Below, each entry is listed with its recorded fractional viability.
System: TYKNU
Assay: fractional viability relative to vehicle; higher = less growth inhibition
Measurement Setup: 10uM; 72 h; genotype: sgCTRLA1 (non-targeting control)
Structures can show the parent of a compound that is named as a salt. Over roughly 2,000 compounds, “fractional viability relative to vehicle” has its median near 0.91; the lowest 2% begin near 0.045. Many of the other results were omitted from the sample, so the lowest values are more common in it than they were.
Observable: fractional viability

compound=Cc1ncc(Cl)cc1NCc1ccc(C(=O)N[C@@H](CC2CCCC2)C(=O)NC2CC2)s1 test_value=0.778
compound="COc1cc2nc(N3CCN(C(=O)C4COc5ccccc5O4)CC3)nc(N)c2cc1OC (configuration not stated) [Doxazosin Mesylate]" test_value=0.931
compound=COc1cc2nc(N3CCCN(C)CC3)nc(NC3CCN(Cc4ccccc4)CC3)c2cc1OC test_value=0.0181
compound=C[C@@H](Oc1cc(-c2cnn(C3CCNCC3)c2)cnc1N)c1c(Cl)ccc(F)c1Cl test_value=0.126
compound="C=C1C(=O)O[C@H]2[C@H]1CC/C(C)=C/CC[C@@]1(C)O[C@@H]21 [(-)-Parthenolide]" test_value=0.0264
compound="COc1cc2nc(N3CCN(C(=O)C4CCCO4)CC3)nc(N)c2cc1OC (configuration not stated) [Terazosin HCl]" test_value=0.97
compound="CC(C)NC[C@H](O)COc1ccc(CCOCC2CC2)cc1 [Levobetaxolol HCl]" test_value=1.27
compound=COc1cc2c(NC3CCN(CC4CCCCC4)CC3)nc(N3CCCN(C(C)C)CC3)nc2cc1OCCCN1CCCCC1 test_value=0.00884
compound=CC[C@H](Nc1ncnc2[nH]cnc12)c1nc2cccc(F)c2c(=O)n1-c1ccccc1 test_value=0.971
compound=COC(=O)c1ccc2c(c1)NC(=O)/C2=C(\Nc1ccc(N(C)C(=O)CN2CCN(C)CC2)cc1)c1ccccc1 test_value=0.147
compound="COc1cc(Nc2c(C#N)cnc3cc(OCCCN4CCN(C)CC4)c(OC)cc23)c(Cl)cc1Cl [Bosutinib (SKI-606)]" test_value=0.111
compound=COCCOc1nc(-c2ccc(Cl)c(Cl)c2)n(-c2ccc(NC(=O)CCl)cc2)n1 test_value=0.806
compound=CCS(=O)(=O)Nc1ccc2c(c1)/C(=C(/Nc1ccc(CN3CCCCC3)cc1)c1ccccc1)C(=O)N2 test_value=0.0381
compound=CN(C)Cc1cccc(N/C(=C2\C(=O)Nc3cc(C(N)=O)ccc32)c2ccccc2)c1 test_value=0.912
compound=CCOC(=O)c1ccc(NC(=O)O[C@H]2[C@H](OC(=O)Nc3ccc4c(c3)OCO4)[C@@H](OC(=O)Nc3ccc4c(c3)OCO4)[C@@H](OC)O[C@@H]2CO)cc1 test_value=0.615
compound=CC(/C=C1\SC(=S)N(CC(=O)O)C1=O)=C\c1ccccc1 test_value=1.03
compound="COc1cc(OC)c(C(=O)CCCN2CCCC2)c(OC)c1 [Buflomedil HCl]" test_value=1.03

----------
System: TYKNU
Assay: fractional viability relative to vehicle; TYKNU is a high-grade serous ovarian cancer line; higher = less growth inhibition
Measurement Setup: 10uM; 72 h; genotype: DNM1L knockout (sgDNM1L #1)
Counter-ions that a name gives are not always drawn. Over roughly 2,000 compounds, “fractional viability relative to vehicle” has its median near 0.91; the lowest 2% begin near 0.045. The sample as a whole holds a higher share of the lowest values than the screen did.
Below, each entry is listed with its recorded fractional viability.
Observable: fractional viability

molecule=O=C(NCC1(c2nc(-c3ccccc3)cs2)CCOCC1)c1cccc(-c2noc(C(F)(F)F)n2)c1 target=TYKNU test_value=0.562
molecule=O=C(NNc1nc2cc(F)ccc2n2cccc12)c1cnccn1 target=TYKNU test_value=0.269
molecule=Cc1c[nH]c(/C=C2\C(=O)Nc3ccccc32)c1CCC(=O)O target=TYKNU test_value=0.874
molecule="CCCCc1nc2cc(/C=C/C(=O)NO)ccc2n1CCN(CC)CC [Pracinostat (SB939)]" target=TYKNU test_value=0.0823
molecule=CCCc1nc(C(C)(C)O)c(C(=O)OCc2oc(=O)oc2C)n1Cc1ccc(-c2ccccc2-c2nnn[nH]2)cc1 target=TYKNU test_value=1.1
molecule=Cn1cc(-c2ccc3nnc(C(F)(F)c4ccc5ncccc5c4)n3n2)cn1 target=TYKNU test_value=1.03
molecule=C#CC[C@H](c1nc2cc(Cl)ccc2c(=O)n1Nc1ccccc1)N(CCCN)C(=O)c1cccc(Cl)c1F target=TYKNU test_value=0.0262
molecule="Nc1cccc2c1C(=O)N(C1CCC(=O)NC1=O)C2=O (centres undefined) [Pomalidomide]" target=TYKNU test_value=0.798
molecule=O=C1NC(=O)/C(=C/c2ccc3nccc(-c4ccncc4)c3c2)S1 target=TYKNU test_value=0.21
molecule=Cc1c(Cn2c(C)nc3c(C(=O)O)cc(N4CCOCC4)cc32)cccc1C(F)(F)F target=TYKNU test_value=0.83
molecule=CCn1cc(NC(=S)Nc2cc(Cl)ccc2OC)c(C(N)=O)n1 target=TYKNU test_value=0.864
molecule="CC[C@]12C=CCN3CC[C@@]4(c5cc([C@@]6(C(=O)OC)C[C@@H]7C[C@@H](C(C)(F)F)CN(Cc8c6[nH]c6ccccc86)C7)c(OC)cc5N(C)[C@H]4[C@@](O)(C(=O)OC)[C@@H]1OC(C)=O)[C@@H]32 [Vinflunine Tartrate]" target=TYKNU test_value=0.142
molecule="CCOC(=O)[C@H](CCc1ccccc1)N[C@H]1CS[C@H](c2cccs2)CN(CC(=O)O)C1=O [Temocapril HCl]" target=TYKNU test_value=0.83
molecule=COCCOc1ccc2c(c1)ncn2-c1ccc2cccc(N3CCC(N)CC3)c2n1 target=TYKNU test_value=0.13
molecule=FC(F)(F)c1ccc(/C=C/c2nc(COc3ccc(CCCCn4ccnn4)cc3)co2)cc1 target=TYKNU test_value=0.545
molecule="CCN(CC)CCOc1ccc(C(=C(Cl)c2ccccc2)c2ccccc2)cc1 [Clomifene citrate]" target=TYKNU test_value=0.178
molecule=COc1ccc([C@]2(C#N)CC[C@@H](C(=O)O)CC2)cc1OC1CCCC1 target=TYKNU test_value=0.843
molecule="O=C1c2c(O)cc(O)cc2OC(c2ccc(O)c(O)c2)C1O (centres undefined) [Taxifolin (Dihydroquercetin)]" target=TYKNU test_value=0.951
molecule=O=C(NC[C@H](O)CN1CCc2ccccc2C1)c1cc(NC2COC2)ncn1 target=TYKNU test_value=0.604
molecule=NC(=O)CCCSc1nc(N)nc(-c2c(Cl)cc3c4c(cccc24)COC3)n1 target=TYKNU test_value=0.915
molecule="Cc1cc(C(O)=C2C(=O)C(=O)N(CCCN3CCOCC3)C2c2ccncc2)ccc1OCc1ccccc1 (centres undefined)" target=TYKNU test_value=0.802
molecule=CCNC(=O)C#Cc1ccc2c(C(=Nc3ccc(CN(C)C)cc3)c3ccccc3)c(O)[nH]c2c1 target=TYKNU test_value=0.0494
molecule=CC(C)[C@H](O)C(=O)N[C@@H](C)C(=O)N[C@@H]1C(=O)N(C)CCc2ccccc21 target=TYKNU test_value=0.949
molecule=CCN1C[C@H](C)n2c(c(O)c3c(=O)n(Cc4ccc(F)c(Cl)c4)nc(C(=O)NC)c32)C1=O target=TYKNU test_value=0.793
molecule=Cc1ccc(C(=O)N(CCCN)[C@@H](c2nc3cc(Cl)ccc3c(=O)n2Cc2ccccc2)C(C)C)cc1 target=TYKNU test_value=0.107
molecule="CC(O)c1cc(C(=O)N[C@@H](C)Cn2ccc(-c3ccc(C#N)c(Cl)c3)n2)n[nH]1 (some centres undefined)" target=TYKNU test_value=0.94
molecule=O=[N+]([O-])c1ccc2c(c1)S(=O)(=O)C=C2 target=TYKNU test_value=0.0327
molecule="NC[C@H](O)c1ccc(O)c(O)c1 [Noradrenaline bitartrate monohydrate]" target=TYKNU test_value=0.592
molecule=O=C(O)c1ccccc1 target=TYKNU test_value=0.581
molecule=Cc1nn(C)c(COc2ccc(N3CCN(S(=O)(=O)N(C)C)CC3)cc2)c1-c1cccc2c(CCCOc3cccc4ccccc34)c(C(=O)O)n(CCN3CCOCC3)c12 target=TYKNU test_value=0.644
molecule=COc1cc2c(cc1OC)CN(CCc1ccc(NC(=O)c3cc(OC)c(OC)cc3NC(=O)c3cnc4ccccc4c3)cc1)CC2 target=TYKNU test_value=0.158
molecule=CN1CCN(c2ccc3nc(-c4c(N)c5c(F)cccc5[nH]c4=O)[nH]c3c2)CC1 target=TYKNU test_value=0.119
molecule=O=C(O)CCNC(=O)c1ccccc1 target=TYKNU test_value=0.923
molecule=O=C(NC1CC1)c1cc(-c2cccs2)on1 target=TYKNU test_value=0.795

Data credit: the supplement of paper PMC5919970
